These data points were gathered from PubChem BioAssay AID1259415.

# experiment-summary: qHTS Assay for inhibitors of the human cytomegalovirus (HCMV); note: % is set by controls: 0 for no effect and ±100 for the full control effect
# conditions-used: HFF cells, HCMV-luciferase reporter, 72 h; at 57.5 µM; active compounds read low
# Protocol: NCGC Assay Overview: Infection with human cytomegalovirus (HCMV) continues to pose significant threats for pregnant women and immunocompromised hosts. […] This is a cell-based assay for HCMV inhibition in HFFs cells. […] At 72 h post infection cell lysates were collected and luciferase activity was determined using the Glomax-Multi + Detection System (Promega, Madison, WI). […]
In all, about 410,000 compounds went through this assay and about 18,000 (4.4%) were called active. Roughly 7% stayed inconclusive and do not appear here. Shown is part of a subset that was picked to be rich in actives.
Each entry below carries its reported activity change, negative = inhibition.

{"compound": "CC(C)(c1ccccc1)c1ccc(OCCN)cc1", "activity change, negative = inhibition / %": -107}
{"compound": "O=c1c(-c2ccc3c(c2)OCCO3)c(C(F)(F)F)oc2cc(O)cc(O)c12", "activity change, negative = inhibition / %": -90.6}
{"compound": "Cc1nn(CCOc2ccccc2)c(=O)n1-c1ccccc1F", "activity change, negative = inhibition / %": 69.3}
{"compound": "CCOC(=O)c1cc2cc(-c3c(C(=O)OCC)oc4cc(O)cc(O)c4c3=O)ccc2o1", "activity change, negative = inhibition / %": -2.73}
{"compound": "CC=C(C)C(=O)OC1CCN2CC=C(COC(=O)C(O)(C(C)OC)C(C)(C)O)C12 (stereo not given)", "activity change, negative = inhibition / %": -28.3}

====

# experiment-summary: qHTS Assay for inhibitors of the human cytomegalovirus (HCMV); note: % is set by controls: 0 for no effect and ±100 for the full control effect
# conditions-used: HFF cells, HCMV-luciferase reporter, 72 h; at 57.5 µM; active compounds read low
About 18,000 (4.4%) of roughly 410,000 compounds were called active. Not shown: some 7% with an inconclusive outcome. The list comes from a sample in which actives are over-represented; it also holds close analogues and randomly drawn compounds.
Response field label: string, one of fulfilled (activity change, negative = inhibition strictly below -10%) or not fulfilled.

{"compound": "Cc1cc(-c2ccc(S(=O)(=O)N3CCN(c4cccc(C(F)(F)F)c4)CC3)s2)on1", "assigned-class": "fulfilled"}
{"compound": "Cc1cc(-c2ccc(S(=O)(=O)N3CCc4ccccc4C3)s2)on1", "assigned-class": "fulfilled"}
{"compound": "CC1=C[C@H]2Cc3cc(C)cc(C)c3S(=O)(=O)[C@@H]2C=C1", "assigned-class": "fulfilled"}
{"compound": "C/C(=N/NC(=O)CC(=O)N/N=C(\\C)c1ccc([N+](=O)[O-])cc1)c1ccc([N+](=O)[O-])cc1", "assigned-class": "not fulfilled"}
{"compound": "CCOc1ccc(-c2nonc2NC(=O)c2oc3ccc(CC)cc3c2C)cc1", "assigned-class": "not fulfilled"}
{"compound": "C/C(=N\\Nc1nc(N2CCOCC2)nc(N2CCOCC2)n1)c1ccc([N+](=O)[O-])cc1", "assigned-class": "fulfilled"}
{"compound": "C/C(=N\\Nc1ccc([N+](=O)[O-])cc1)c1ccc(-n2nncc2C(C)(C)C)cc1", "assigned-class": "fulfilled"}
{"compound": "O=C(C1CCC1)N1CCc2cc(S(=O)(=O)NCc3cccnc3)ccc21", "assigned-class": "fulfilled"}
{"compound": "Cc1cccc(N2CCN(S(=O)(=O)c3ccc(-c4cc(C)no4)s3)CC2C)c1 (stereo not given)", "assigned-class": "not fulfilled"}
{"compound": "COc1ccccc1C(=O)NCCC(=O)N(C)Cc1cccnc1", "assigned-class": "not fulfilled"}

====

# experiment-summary: qHTS Assay for inhibitors of the human cytomegalovirus (HCMV); note: % is set by controls: 0 for no effect and ±100 for the full control effect
# conditions-used: HFF cells, HCMV-luciferase reporter, 72 h; at 57.5 µM; active compounds read low
About 18,000 (4.4%) of roughly 410,000 compounds were called active. Not shown: some 7% with an inconclusive outcome. Only a selection was taken, and actives are over-represented in it overall.
Below: a set of entries, each annotated with reported activity change, negative = inhibition.
observable: activity change, negative = inhibition (%)

{"compound": "Nc1ncnc2c1ncn2C1OC(CO)CC1O (stereo not given)", "recorded-value": 8.48}
{"compound": "CCc1nn(CC(=O)Nc2cccc(C)c2C)c(=O)c2cc3sccc3n12", "recorded-value": -1.56}
{"compound": "COc1ccc2c(c1)C(c1cccs1)=NNC(c1cccnc1)=N2", "recorded-value": -22.6}
{"compound": "CN(C)c1ccc(C(CNS(=O)(=O)c2cc(F)ccc2F)N2CCOCC2)cc1 (stereo not given)", "recorded-value": -0.38}
{"compound": "Cc1c(C(=O)N(C)C)sc2c1c(=O)n(-c1ccc(F)cc1)c(=O)n2CC(=O)N(C)c1ccccc1", "recorded-value": 7.53}
{"compound": "O=C(NCC(c1ccco1)S(=O)(=O)c1cccs1)c1ccc(F)cc1 (stereo not given)", "recorded-value": 0}
{"compound": "COc1ccccc1NC(=O)c1oc2ccccc2c1NC(=O)COc1ccccc1OC", "recorded-value": 2.62}
{"compound": "CCC(=C/c1sc2ccc3ccccc3c2[n+]1C)/C=C1\\Sc2ccc3ccccc3c2N1C", "recorded-value": -100}
{"compound": "CCCCn1c(CNC(=O)C23CC4CC(CC(C4)C2)C3)nnc1SCC(=O)Nc1ccc(C)cc1", "recorded-value": 13.3}
{"compound": "CCOC(=O)c1c(S(=O)(=O)N2CCCC(C(=O)NCc3cccc(C)c3)C2)c(C)n(C)c1C (stereo not given)", "recorded-value": -0.309}

====

# experiment-summary: qHTS Assay for inhibitors of the human cytomegalovirus (HCMV); note: % is set by controls: 0 for no effect and ±100 for the full control effect
# conditions-used: HFF cells, HCMV-luciferase reporter, 72 h; at 57.5 µM; active compounds read low
Out of some 410,000 compounds screened, about 18,000 (4.4%) were called active. Roughly 7% stayed inconclusive and do not appear here. Only a selection was taken, and actives are over-represented in it overall.
observable: activity change, negative = inhibition (%)

{"entry-smiles": "Cc1nnc(SCC(=O)NCc2ccccc2Cl)c2nn(-c3ccccc3)c(C)c12", "recorded-value": -12.6}
{"entry-smiles": "COc1ccc(Cc2nc3ccc(C(=O)NCc4ccc(OC)cc4OC)cc3o2)cc1", "recorded-value": -12.1}
{"entry-smiles": "COc1ccc(CCC(=O)N2CCN(S(=O)(=O)c3ccc(OC)cc3)CC2)cc1", "recorded-value": -31.5}
{"entry-smiles": "O=C(CSc1oc(-c2ccc(F)cc2)nc1S(=O)(=O)c1ccc(Br)cc1)NC1CCCCC1", "recorded-value": 5.22}
{"entry-smiles": "Cc1ccc(-c2nc(S(=O)(=O)c3ccc(C)cc3)c(N3CCCCCC3)o2)cc1", "recorded-value": -3.36}
{"entry-smiles": "CCOc1ccc(CCNC(=O)c2csc3c2CCCCC3)cc1", "recorded-value": -5.3}
{"entry-smiles": "O=C(Nc1cc(Cl)ccc1N1CCOCC1)c1ccc(N2CCCC2=O)cc1", "recorded-value": -3.06}
{"entry-smiles": "COc1ccc(S(=O)(=O)NCc2ccc(C(=O)N(C)Cc3ccco3)cc2)cc1", "recorded-value": -13.3}
{"entry-smiles": "CCOC(=O)c1c(C)[nH]c(C)c1C(=O)COC(=O)/C=C/c1cccc([N+](=O)[O-])c1", "recorded-value": -7.36}
{"entry-smiles": "CNS(=O)(=O)c1ccc(N2CCCC2=O)c([N+](=O)[O-])c1", "recorded-value": -21}

====

activity change, negative = inhibition reference
# experiment-summary: qHTS Assay for inhibitors of the human cytomegalovirus (HCMV); note: % is set by controls: 0 for no effect and ±100 for the full control effect
# conditions-used: HFF cells, HCMV-luciferase reporter, 72 h; at 57.5 µM; active compounds read low
The whole screen tested about 410,000 compounds, of which about 18,000 (4.4%) were called active. Another 7% or so got no clear call; they are omitted. For the sample, actives were picked, then their nearest neighbours and some compounds at random.

{"compound": "CCOc1ccc(Br)cc1S(=O)(=O)N1CCC(C(=O)O)CC1", "activity change, negative = inhibition / %": -26.6}
{"compound": "CCOc1ccccc1NC(=O)Cn1c2ncccc2c(=O)n1-c1ccc(C)c(C)c1", "activity change, negative = inhibition / %": -10.1}
{"compound": "Cc1noc(C)c1CSCC(=O)N(CCC(C)C)c1c(N)n(Cc2ccccc2)c(=O)[nH]c1=O", "activity change, negative = inhibition / %": 4.61}
{"compound": "OC(CNCC1CCCO1)Cn1c2ccc(Br)cc2c2cc(Br)ccc21 (stereo unspecified)", "activity change, negative = inhibition / %": 2.12}
{"compound": "Cc1[nH]c2ccccc2c1C(=O)COC(=O)c1c(-c2ccccc2)noc1C", "activity change, negative = inhibition / %": -67.3}
{"compound": "CCOCCCNC(=O)c1cn(CC)c2ccc(S(=O)(=O)N3CCc4ccccc4C3)cc2c1=O", "activity change, negative = inhibition / %": 8.54}
{"compound": "COc1ccc(C(=O)COC(=O)c2c(C)noc2C)cc1Cl", "activity change, negative = inhibition / %": -19.5}
{"compound": "Cc1[nH]c2ccccc2c1C(=O)CN1CC(C)CC(C)C1 (stereo unspecified)", "activity change, negative = inhibition / %": 9.64}
{"compound": "CC(=NNC(N)=O)c1ccc(Cl)c(-n2cccc2)c1", "activity change, negative = inhibition / %": 25.6}
{"compound": "CCOc1cc(/C=C(\\C#N)C(=O)Nc2ccccc2C)ccc1OCc1cc(=O)n2nc(CC)sc2n1", "activity change, negative = inhibition / %": -5.21}
{"compound": "CCOc1ccc(Br)cc1CSC(=N)N", "activity change, negative = inhibition / %": -73.3}
